- Tested on: Snail
- assay_comment: EMT inhibitory effect by inhibition of Snail expression (immunoblotting) in MCF7 cells
- Assay type: cell-based, human
- assay_conditions: 1 μM, MCF7, 48 hours, untreated control = 100%
Structures can show the parent of a compound that is named as a salt.
parameter_measured: Snail Expression Rate (%)
Return type: number; implicit unit %.

[[record]]
molecule = "Cl.N=C(NC(=N)N1CCCCC1)Nc1ccc(C(F)(F)F)cc1"
measure_unit = "%"
experimental_result = 52.7

[[record]]
molecule = "Cl.N=C(NC(=N)N1CCCCC1)Nc1cccc(Cl)c1"
measure_unit = "%"
experimental_result = 57.6

[[record]]
molecule = "Cl.N=C(NC(=N)N1CCCCCC1)Nc1cccc(Cl)c1"
measure_unit = "%"
experimental_result = 83.5


input: Entry under review: [H]/N=C(/N)N/C(=N/[H])NCCc1ccccc1 [Phenformin hydrochloride, reference compound] . Reported Snail Expression Rate (%)?
output: 117.6

input: Same question for Cl.N=C(NC(=N)N1CCCC1)Nc1ccc(C(F)(F)F)cc1 please.
output: 57.2
